Target: T1, human CAPRIN-1 protein on the cell surfaces of human cancer cell lines and in human cancer tissues (human, UniProt Q14444 2-709)
T1 sequence (looked up): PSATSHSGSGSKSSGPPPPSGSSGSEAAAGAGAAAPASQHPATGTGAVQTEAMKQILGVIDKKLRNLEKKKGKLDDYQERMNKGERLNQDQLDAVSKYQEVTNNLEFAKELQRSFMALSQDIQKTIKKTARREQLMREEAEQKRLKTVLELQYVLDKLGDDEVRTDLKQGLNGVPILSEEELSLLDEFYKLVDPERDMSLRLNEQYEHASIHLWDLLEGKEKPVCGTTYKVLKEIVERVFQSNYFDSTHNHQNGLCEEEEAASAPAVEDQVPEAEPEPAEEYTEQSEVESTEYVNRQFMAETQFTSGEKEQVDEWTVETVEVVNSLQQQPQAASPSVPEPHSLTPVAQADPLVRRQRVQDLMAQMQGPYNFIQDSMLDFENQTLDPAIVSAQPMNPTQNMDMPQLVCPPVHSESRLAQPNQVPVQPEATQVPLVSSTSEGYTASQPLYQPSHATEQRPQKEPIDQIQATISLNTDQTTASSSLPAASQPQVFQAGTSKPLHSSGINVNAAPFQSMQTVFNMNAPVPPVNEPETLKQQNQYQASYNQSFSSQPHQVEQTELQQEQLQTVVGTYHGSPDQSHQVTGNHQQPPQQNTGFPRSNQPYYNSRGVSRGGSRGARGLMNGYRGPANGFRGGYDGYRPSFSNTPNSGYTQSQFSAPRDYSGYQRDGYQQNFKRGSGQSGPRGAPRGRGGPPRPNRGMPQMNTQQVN
Test: cell-based or functional assay
MEASUREMENT NAME: cytotoxic activity (ADCC) against QG56

# get_value(readout='cytotoxic activity (ADCC) against QG56', item= anti-CAPRIN-1 mouse monoclonal antibody #6 (antibody, V domains shown, Mouse hybridoma antibody; detected with anti-mouse IgG) VH: DAELVKPGASVKISCKASGYTFTDHSIHWVQQKPEQGLEWIGYISPGNGNIKYNEKFKGKATLTADKSSSTAYMQLNSLTSEDSAVYFCKRSLGRGGPYYFDYWGQGTTVTVSS VL: DIVLTQAAPSLPVTPGESVSISCRSSKSLLHSNGNTYLYWFLQRPGQSPQLLIYRMSNLASGVPDRFSGSGSGTAFTLRISRVEAEDVGVYYCMQHREYPVTFGSGPN )
≥ 20%
